Cited source for all entries: patent USRE37781E1

# target-desc: HIV protease (Human immunodeficiency virus type 1 group M subtype B)
# Construct: plasmid containing HIV protease under the control of an inducible T7 promoter; made in house; host or cells: E. coli (inclusion bodies, T7 promoter)
# assay-method-text: biochemical
# Parameters: species or system HIV-1
# details: Table 1d, upper part; read-out: Ki
Item-by-item account of Ki
readout-label: Ki

[[record]]
compound = "CCCC1(OC)OC2C(O1)C(Cc1ccccc1)N(Cc1ccc3ccccc3c1)C(=O)N(Cc1ccc3ccccc3c1)C2Cc1ccccc1 (stereo not drawn) [Example 7S]"
readout_label = "Ki"
result = "> 1000 nM"

[[record]]
compound = "CC(=O)OC1C(OC(C)=O)C(Cc2ccccc2)N(Cc2ccc3ccccc3c2)C(=O)N(Cc2ccc3ccccc3c2)C1Cc1ccccc1 (stereo not drawn) [Example 7J]"
readout_label = "Ki"
result = "10 to 1000 nM"

[[record]]
compound = "CC1(C)OC2C(O1)C(Cc1ccccc1)N(Cc1ccc3ccccc3c1)C(=O)N(Cc1ccc3ccccc3c1)C2Cc1ccccc1 (stereo not drawn) [Example 7R]"
readout_label = "Ki"
result = "> 1000 nM"


* * *

# target-desc: single-chain tethered dimer of HIV protease (Human immunodeficiency virus 1, UniProt P04585)
# assay-method-text: biochemical
# Type: biochemical
# Set-up: fused on or other part: A second copy of the same protease unit is joined to the first by a short peptide tether, giving one polypeptide
# details: read-out: HPLC K1; Table 2d; class symbols
Item-by-item account of Ki
readout-label: Ki

[[record]]
compound = "N=C(N)c1cccc(CN2C(=O)N(Cc3cccc(C(=N)N)c3)C(Cc3ccccc3)C(O)C(O)C2Cc2ccccc2)c1 (stereo not drawn) [11A]"
readout_label = "Ki"
result = "10 to 1000 nM"

[[record]]
compound = "O=C1N(CCOCCO)C(Cc2ccccc2)C(O)C(O)C(Cc2ccccc2)N1CCOCCO (stereo not drawn) [Example 12U]"
readout_label = "Ki"
result = "> 1000 nM"

[[record]]
compound = "COC(=O)CCCCCN1C(=O)N(CCCCCC(=O)OC)C(Cc2ccccc2)C(O)C(O)C1Cc1ccccc1 (stereo not drawn) [Example 12H]"
readout_label = "Ki"
result = "10 to 1000 nM"

[[record]]
compound = "CCN(CC)C(=O)c1cccc(CN2C(=O)N(Cc3cccc(CO)c3)C(Cc3ccccc3)C(O)C(O)C2Cc2ccccc2)c1 (stereo not drawn) [15WJ]"
readout_label = "Ki"
result = "< 10 nM"

[[record]]
compound = "CN(C)c1cccc(CN2C(=O)N(Cc3cccc(N(C)C)c3)C(Cc3ccccc3)C(O)C(O)C2Cc2ccccc2)c1 (stereo not drawn) [15I]"
readout_label = "Ki"
result = "< 10 nM"

[[record]]
compound = "CSCCCCCN1C(=O)N(CCCCCO)C(Cc2ccccc2)C(O)C(O)C1Cc1ccccc1 (stereo not drawn) [Example 15VJ]"
readout_label = "Ki"
result = "10 to 1000 nM"

[[record]]
compound = "O=C1N(CCCCCO)C(Cc2ccccc2)C(O)C(O)C(Cc2ccccc2)N1Cc1ccc2ccccc2c1 (stereo not drawn) [Example 15VH]"
readout_label = "Ki"
result = "< 10 nM"

[[record]]
compound = "CCN(CC)C(=O)c1cccc(CN2C(=O)N(Cc3cccc(C(=O)N(CC)CC)c3)C(Cc3ccccc3)C(O)C(O)C2Cc2ccccc2)c1 (stereo not drawn) [15WF]"
readout_label = "Ki"
result = "< 10 nM"

[[record]]
compound = "O=C1N(Cc2cccc(CNO)c2)C(Cc2ccccc2)C(O)C(O)C(Cc2ccccc2)N1Cc1cccc(CNO)c1 (stereo not drawn) [Example 9B]"
readout_label = "Ki"
result = "10 to 1000 nM"

[[record]]
compound = "O=C1N(CCCCC(Br)CBr)C(Cc2ccccc2)C(O)C(O)C(Cc2ccccc2)N1CCCCC(Br)CBr (stereo not drawn) [Example 13F]"
readout_label = "Ki"
result = "10 to 1000 nM"

[[record]]
compound = "O=C1N(Cc2cccc([N+](=O)[O-])c2)C(Cc2ccccc2)C(O)C(O)C(Cc2ccccc2)N1CC1CC1 (stereo not drawn) [15H]"
readout_label = "Ki"
result = "< 10 nM"

[[record]]
compound = "O=C1N(CC2CC2)C(Cc2ccccc2)C(O)C(O)C(Cc2ccccc2)N1c1ccccn1 (stereo not drawn) [Example 14D]"
readout_label = "Ki"
result = "10 to 1000 nM"

[[record]]
compound = "O=C1N(Cc2cccc(NS(=O)(=O)C(F)(F)F)c2)C(Cc2ccccc2)C(O)C(O)C(Cc2ccccc2)N1Cc1cccc(NS(=O)(=O)C(F)(F)F)c1 (stereo not drawn) [15B]"
readout_label = "Ki"
result = "< 10 nM"

[[record]]
compound = "O=C1N(Cc2ccc(CO)cc2)C(Cc2ccccc2)C(O)C(O)C(Cc2ccccc2)N1Cc1cccc(O)c1 (stereo not drawn) [10o]"
readout_label = "Ki"
result = "< 10 nM"

[[record]]
compound = "O=C1NC(Cc2ccccc2)C(O)C(O)C(Cc2ccccc2)N1CCCCCCCO (stereo not drawn) [Example 12o]"
readout_label = "Ki"
result = "10 to 1000 nM"

[[record]]
compound = "O=Cc1cc(CN2C(=O)N(Cc3ccc(O)cc3)C(Cc3ccccc3)C(O)C(O)C2Cc2ccccc2)ccc1O (stereo not drawn) [Example 11E]"
readout_label = "Ki"
result = "< 10 nM"

[[record]]
compound = "N#Cc1cccc(CN2C(=O)N(CCCCCO)C(Cc3ccccc3)C(O)C(O)C2Cc2ccccc2)c1 (stereo not drawn) [Example 15VX]"
readout_label = "Ki"
result = "< 10 nM"

[[record]]
compound = "O=C(NCc1ccccc1)Oc1cccc(CN2C(=O)N(Cc3cccc(OC(=O)NCc4ccccc4)c3)C(Cc3ccccc3)C(O)C(O)C2Cc2ccccc2)c1 (stereo not drawn) [Example 9L]"
readout_label = "Ki"
result = "10 to 1000 nM"

[[record]]
compound = "CCOC(=O)c1cccc(CN2C(=O)N(CCCCCO)C(Cc3ccccc3)C(O)C(O)C2Cc2ccccc2)c1 (stereo not drawn) [Example 15VY]"
readout_label = "Ki"
result = "< 10 nM"

[[record]]
compound = "N#Cc1cccc(CN2C(=O)N(Cc3cccc(C=O)c3)C(Cc3ccccc3)C(O)C(O)C2Cc2ccccc2)c1 (stereo not drawn) [10C]"
readout_label = "Ki"
result = "< 10 nM"

[[record]]
compound = "O=C1NC(Cc2ccccc2)C(O)C(O)C(Cc2ccccc2)N1CCCCCO (stereo not drawn) [Example 15VG]"
readout_label = "Ki"
result = "< 10 nM"

